- Assay comment: Cytotoxicity in Hs27 cells, CellTiter-Glo ATP viability, 48-h incubation
- Assay type: cell-based
- Recorded conditions: human, Hs27 normal skin fibroblast cells, Hs27 normal fibroblasts
I'd be grateful if you could share measured CC50 at 48 h for these entries.
One number for each entry, in µM.

>  <Molecule>
COc1c(Br)cc(C/C(=N\O)C(=O)Nc2ccccn2)cc1Br [Compound 36]

>  <Unit of measure>
µM

>  <Reported>
19.4

$$$$

Fill in CC50 at 48 h for each of the 3 molecules listed.
1. COc1ccc(NC(=O)/C(Cc2cc(Br)c(OC)c(Br)c2)=N/O)cc1Cl [Compound 33]
2. CC[C@@]1(O)C(=O)OCc2c1cc1n(c2=O)Cc2cc3ccccc3nc2-1 [Camptothecin, reference compound]
3. COc1c(Br)cc(C/C(=N\O)C(=O)Nc2cc(Cl)cc(Cl)c2)cc1Br [Compound 35]

stdout:
1. 26.4
2. 5.54
3. 12.2

These measurements were taken from paper PMC6316490.
